Ref: ChEMBL document CHEMBL3259755

- PROTOCOL: AUC (0 to t) in Swiss mouse at 100 mg/kg, po by LC-MS/MS analysis
- Type: ADME, organism-based
- Parameters: dose 100 mg/kg, route oral
- RECORDED_CONDITIONS: plasma
VALUE_TYPE: AUC(0-t)

1. O=C(NCCO[N+](=O)[O-])c1ccccn1 = 10.1 µg·h/mL
2. O=C(NCCO[N+](=O)[O-])c1ccncc1 = 160 µg·h/mL
3. O=C(NCCO[N+](=O)[O-])c1cccnc1 = 121 µg·h/mL

---

- PROTOCOL: Cmax in Swiss mouse at 100 mg/kg, po by LC-MS/MS analysis
- Assay type: ADME, organism-based
- Design: dose 100 mg/kg, route oral
- RECORDED_CONDITIONS: in vivo
VALUE_TYPE: Cmax (ng/mL)

1. O=C(NCCO[N+](=O)[O-])c1ccncc1 = 49400
2. O=C(NCCO[N+](=O)[O-])c1ccccn1 = 30800
3. O=C(NCCO[N+](=O)[O-])c1cccnc1 [NICORANDIL] = 42600
